test: Cytotoxicity against yeast cells assessed as growth inhibition at 100 uM after 44 hrs by turbidometric assay; type: toxicity, cell-based; settings: saccharomyces cerevisiae
observation.type: Activity

Some entries whose results are on file:
> print(dat)
                                item.smiles  test.value
1  CC1(C)N=C(NCCc2cccnc2)S[C@]12CC[C@@H](C)CC2   Non-Toxic
2  CC1(C)N=C(NCc2cccc(O)c2)S[C@]12CC[C@@H](C)CC2   Non-Toxic
3  CC1(C)N=C(NCCN2CCNCC2)S[C@]12CC[C@@H](C)CC2   Non-Toxic
4         CC1(C)N=C(N)S[C@]12CC[C@@H](C)CC2   Non-Toxic

Tell us which Activity value is on record for `CC1(C)N=C(NCc2cccnc2)S[C@]12CC[C@@H](C)CC2`
Non-Toxic

Tell us which Activity value is on record for `CN1CCC(CNC2=NC(C)(C)[C@]3(CC[C@H](C)CC3)S2)CC1`
Non-Toxic

Tell us which Activity value is on record for `COCCNC1=NC(C)(C)[C@]2(CC[C@H](C)CC2)S1`
Non-Toxic
